- Study System: Angiotensin-converting enzyme (Oryctolagus cuniculus) (UniProt P12822)
- Sequence (whole entry): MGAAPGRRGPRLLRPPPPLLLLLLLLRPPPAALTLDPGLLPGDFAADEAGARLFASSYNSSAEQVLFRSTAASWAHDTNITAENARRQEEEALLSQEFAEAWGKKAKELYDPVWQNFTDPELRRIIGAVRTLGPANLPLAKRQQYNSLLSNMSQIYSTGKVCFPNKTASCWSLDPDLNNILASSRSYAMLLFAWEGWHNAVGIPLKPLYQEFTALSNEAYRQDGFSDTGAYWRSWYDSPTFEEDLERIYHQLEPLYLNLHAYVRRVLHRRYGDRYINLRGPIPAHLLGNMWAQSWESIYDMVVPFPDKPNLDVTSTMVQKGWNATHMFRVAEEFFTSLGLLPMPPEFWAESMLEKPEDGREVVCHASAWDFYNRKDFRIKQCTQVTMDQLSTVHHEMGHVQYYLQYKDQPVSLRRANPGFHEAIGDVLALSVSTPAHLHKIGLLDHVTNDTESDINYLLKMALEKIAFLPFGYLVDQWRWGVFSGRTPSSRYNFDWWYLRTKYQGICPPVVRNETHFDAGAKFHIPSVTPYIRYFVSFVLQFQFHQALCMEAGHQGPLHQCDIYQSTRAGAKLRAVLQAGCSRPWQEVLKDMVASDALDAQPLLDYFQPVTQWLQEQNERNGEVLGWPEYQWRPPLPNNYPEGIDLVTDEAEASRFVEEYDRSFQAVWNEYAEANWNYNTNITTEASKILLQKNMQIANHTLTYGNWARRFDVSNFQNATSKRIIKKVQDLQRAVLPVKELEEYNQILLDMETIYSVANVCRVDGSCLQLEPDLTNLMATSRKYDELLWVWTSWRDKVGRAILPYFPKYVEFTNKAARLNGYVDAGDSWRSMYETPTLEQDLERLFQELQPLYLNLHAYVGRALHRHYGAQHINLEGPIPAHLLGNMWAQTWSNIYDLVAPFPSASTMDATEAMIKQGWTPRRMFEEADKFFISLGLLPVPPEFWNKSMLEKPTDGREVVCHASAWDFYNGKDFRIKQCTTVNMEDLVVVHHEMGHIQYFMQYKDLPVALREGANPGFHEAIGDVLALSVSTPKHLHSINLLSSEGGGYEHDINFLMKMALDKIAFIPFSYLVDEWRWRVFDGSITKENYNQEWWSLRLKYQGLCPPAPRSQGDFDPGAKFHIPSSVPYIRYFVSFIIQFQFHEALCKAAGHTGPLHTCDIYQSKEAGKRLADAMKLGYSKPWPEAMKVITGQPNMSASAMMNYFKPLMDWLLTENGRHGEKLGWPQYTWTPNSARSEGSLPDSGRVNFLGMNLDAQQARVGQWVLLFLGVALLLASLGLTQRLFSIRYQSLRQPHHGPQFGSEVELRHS
- Method Summary: Inhibition of rabbit lung ACE assessed as reduction in hippuryl-histidyl-leucine substrate at 3 uM by colorimetric assay
Calls of active or inactive are those of the source. The calls are words filed in the database; no cut-off is given here.
Tick one outcome: active, inactive

Compound: CCCCc1nc(Cl)c(/C=C/C(=O)c2ccc([N+](=O)[O-])cc2)n1C
Classification: active
--
Compound: CCCCc1nc(Cl)c(/C=C/C(=O)c2ccco2)n1C
Classification: active
--
Compound: CCCCc1nc(Cl)c(/C=C/C(=O)c2cccc3ccccc23)n1C
Classification: active
--
Compound: CCCCc1nc(Cl)c(/C=C/C(=O)c2ccc(C)cc2)n1C
Classification: active
--
Compound: CCCCc1nc(Cl)c(/C=C/C(=O)c2ccc3oc4ccccc4c3c2)n1C
Classification: active
--
Compound: CCCCc1nc(Cl)c(/C=C/C(=O)c2ccc3ccccc3c2)n1C
Classification: active

(Q) Hi team, can someone confirm the assay call for "CCCCc1nc(Cl)c(/C=C/C(=O)c2ccc(Br)s2)n1C" ?
(A) active

(Q) Hi team, can someone confirm the assay call for "CCCCc1nc(Cl)c(/C=C/C(=O)c2ccc3c(c2)c2ccccc2n3C)n1C" ?
(A) active

(Q) Hi team, can someone confirm the assay call for "CCCCc1nc(Cl)c(/C=C/C(=O)c2ccc(Cl)s2)n1C" ?
(A) active

(Q) Hi team, can someone confirm the assay call for "CCCCc1nc(Cl)c(/C=C/C(=O)c2cccnc2)n1C" ?
(A) active
